- experimentNotes: PK profile in C57BL/6J mice (plasma, brain)
- Type: in vivo, mouse
- appliedConditions: male, C57BL/6J, mouse, sc; brain; s.c. 3 mg/kg; read-out: AUCINF—obs
measuredQuantity: AUC(0-inf)
Express the reported value numerically, then name its unit.

Form field AUC(0-inf), entry COc1cc(SC(F)(F)F)c(OC)cc1CCN [Compound I-1] : 22.5 µg·h/mL

* * *

Could you please report measured half-life at 1 μM for the items listed next?
- experimentNotes: In vitro liver microsome stability (RLM)
- Format: in vitro ADME
- appliedConditions: rat, rat liver microsomes, 0.5 mg/mL microsomes, NADPH, read-out: RLM, t1/2
# unit: min | format: bare number

Quick note, half-life at 1 μM for COc1cc(SCCC(F)(F)F)c(OC)cc1CCN landed at 24.8

// half-life at 1 μM lookup, molecule = COc1cc(C2CCCC2)c(OC)cc1CCN , result: 7.8

Item: COc1cc(SC(F)(F)F)c(OC)cc1CCN | half-life at 1 μM: 55.2

Documented half-life at 1 μM of COc1cc(SCCC(F)F)c(OC)cc1CCN : 111

half-life at 1 μM in this record for [2H]C([2H])([2H])Oc1cc(C(C)(C)C)c(OC([2H])([2H])[2H])cc1CCN : 2.4

Entry under test: COc1cc(SCCCF)c(OC)cc1CCN . Its half-life at 1 μM was 11

For record [2H]C([2H])([2H])Oc1cc(C(F)(F)F)c(OC([2H])([2H])[2H])cc1CCN the listed half-life at 1 μM is 21.4
